system: OVCAR-3 ovarian; test: NCI tumour cell line growth inhibition, 48 h
As shown below, each of these molecules has a reported TGI value.

Worked examples follow.
CC(C)(C)OC(=O)NC(Cc1ccccc1)NC(=O)NC(=O)OCc1ccccc1 (stereo unspecified)
> 100 µM
O=C(O)c1cccc2cccc(-c3cccc4cccc(C(=O)O)c34)c12
> 100 µM
O=C1NC(=S)S/C1=C(/C=C(\CC(=O)c1ccccc1)c1ccc(Cl)cc1)c1ccccc1
> 100 µM
CN(C)CCCNC(=O)c1cc(NC(=O)c2cc(NC(=O)CCCn3c4ccccc4c4ccccc43)cn2C)cn1C
> 72.5 µM
C/C=C/C=C/C=C/C=C/C(=O)O
> 100 µM

Please fill in: TGI reported for O=S(=O)(O)c1ccc(N=Nc2ccc(N=Nc3ccc(/C=C/c4ccc(N=[N+]([O-])c5ccc(/C=C/c6ccc(N=Nc7ccc(N=Nc8ccc(S(=O)(=O)O)cc8)cc7)cc6S(=O)(=O)O)c(S(=O)(=O)O)c5)cc4S(=O)(=O)O)c(S(=O)(=O)O)c3)cc2)cc1 = > 100 µM
